B1: H2-Kb / Ed23 (parent complex)
chain 1: QQKVQQSPESLTVSEGAMASLNCTFSDRSSDNFRWYRQHSGKGLEVLVSIFSDGEKEEGSFTAHLNRASLHVFLHIREPQPSDSALYLCAVRGFWTNKVVFGTGTRLQVLP
chain 2: AQTIHQWPVAEIKAVGSPLSLGCTIKGKSSPNLYWYWQATGGTLQQLFYSITVGQVESVVQLNLSASRPKDDQFILSTEKLLLSHSGFYLCAWSPRQSSYEQYFGPGTRLTVL
chain 3: not shown
chain 4: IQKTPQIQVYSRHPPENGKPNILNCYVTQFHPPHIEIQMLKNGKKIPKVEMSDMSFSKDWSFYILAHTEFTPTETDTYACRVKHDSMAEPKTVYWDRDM
chain 5: SIINFEKL

Variants of: B1
Assay: % of reporter cells activated (NFAT-GFP), raw; note: test concentration or dose not given here
property-measured: ratio to parent

[
  {
    "variant": "chain 5 N4D",
    "ratio to parent": 0.0424
  },
  {
    "variant": "chain 5 N4V",
    "ratio to parent": 0.207
  },
  {
    "variant": "chain 5 F5T",
    "ratio to parent": 1.33
  },
  {
    "variant": "chain 5 N4E",
    "ratio to parent": 0.415
  },
  {
    "variant": "chain 5 I2L",
    "ratio to parent": 1.49
  }
]

[P] chain 5 I2R
[Q] chain 5 S1D
Larger number for ratio to parent: P , or Q ? Refer to your chosen entry by its label in the reply.
P

Hello, the source for this data is paper PMC11480844, in case you need it.
